- target: Peptidyl-prolyl cis-trans isomerase NIMA-interacting 1 (Homo sapiens, UniProt Q13526)
- Sequence (Q13526 whole entry): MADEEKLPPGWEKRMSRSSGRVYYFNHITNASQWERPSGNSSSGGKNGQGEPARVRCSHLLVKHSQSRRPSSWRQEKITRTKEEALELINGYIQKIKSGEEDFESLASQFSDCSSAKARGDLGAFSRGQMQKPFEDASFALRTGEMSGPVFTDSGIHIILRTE
Where a SMILES comes first, the peptide text is derived from it. [ ]: non-standard residue; d: D form. The star is where a group is joined. pT = C[C@@H](OP(=O)(O)O)[C@H](N)C(=O)O; Fmoc = O=C(OCC1c2ccccc2-c2ccccc21)*; Hydrocinnamoyl = O=C(CCc1ccccc1)*; ΔPro = O=C(O)[C@@H]1C=CCN1; PhAc = O=C(Cc1ccccc1)*
recorded_metric: log10 of Kd (log10 of the value in µM)
Short version: log10 scale, Kd, µM.

Here are 3 compounds together with their reported answers.
query: Enter reported log10 of Kd observed with Peptidyl-prolyl cis-trans isomerase NIMA-interacting 1 (Homo sapiens, UniProt Q13526) for C[C@@H](OP(=O)(O)O)[C@H](NC(=O)CCc1ccccc1)C(=O)N1CCC[C@H]1C(N)=O (Hydrocinnamoyl-[pT]-Pro-NH2)
result: 1.51

query: Notebook entry, Peptidyl-prolyl cis-trans isomerase NIMA-interacting 1 (Homo sapiens, UniProt Q13526) assay: log10 of Kd of C[C@@H](OP(=O)(O)O)[C@H](NC(=O)Cc1ccccc1)C(=O)N1CCC[C@H]1C(N)=O (PhAc-[pT]-Pro-NH2) = ?
result: 1.54

query: Checklist item: log10 of Kd tested on Peptidyl-prolyl cis-trans isomerase NIMA-interacting 1 (Homo sapiens, UniProt Q13526), entry CC(=O)N[C@H](C(=O)N1C[C@@H](F)C[C@H]1C(N)=O)[C@@H](C)OP(=O)(O)O , value?
result: 2.62

---
query: Look up log10 of Kd with Peptidyl-prolyl cis-trans isomerase NIMA-interacting 1 (Homo sapiens, UniProt Q13526) for this compound: C[C@@H](OP(=O)(O)O)[C@H](NC(=O)OCC1c2ccccc2-c2ccccc21)C(=O)N1CCC[C@H]1C(N)=O (Fmoc-[pT]-Pro-NH2)
result: 1.18

query: # returns recorded log10 of Kd (system: Peptidyl-prolyl cis-trans isomerase NIMA-interacting 1 (Homo sapiens, UniProt Q13526)) for CC(=O)N[C@H](C(=O)N1CCC1C(N)=O)C(C)OP(=O)(O)O (single isomer, unassigned)
result: 2.20

query: Notebook: pull reported log10 of Kd for Peptidyl-prolyl cis-trans isomerase NIMA-interacting 1 (Homo sapiens, UniProt Q13526), entry C[C@@H](OP(=O)(O)O)[C@H](NC(=O)OCC1c2ccccc2-c2ccccc21)C(=O)N1CC=C[C@H]1C(N)=O (Fmoc-[pT]-[ΔPro]-NH2)
result: 1.82
